Molecular target: UniProt:P27338
Sequence (P27338 whole entry): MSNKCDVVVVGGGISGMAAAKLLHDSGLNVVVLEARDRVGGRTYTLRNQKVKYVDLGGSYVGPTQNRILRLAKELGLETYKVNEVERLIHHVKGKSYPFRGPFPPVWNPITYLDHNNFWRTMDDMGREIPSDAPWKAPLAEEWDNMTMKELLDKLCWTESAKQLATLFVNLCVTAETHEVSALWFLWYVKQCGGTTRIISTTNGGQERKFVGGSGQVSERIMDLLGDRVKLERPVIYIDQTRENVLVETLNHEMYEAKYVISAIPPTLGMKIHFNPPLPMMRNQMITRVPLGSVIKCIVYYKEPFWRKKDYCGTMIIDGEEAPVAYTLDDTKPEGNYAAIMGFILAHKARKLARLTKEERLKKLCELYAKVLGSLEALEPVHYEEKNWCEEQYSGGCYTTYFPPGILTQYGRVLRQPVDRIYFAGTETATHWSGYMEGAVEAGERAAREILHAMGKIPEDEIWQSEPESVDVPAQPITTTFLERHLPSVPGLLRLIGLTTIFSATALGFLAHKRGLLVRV
Experiment: Inhibition of human recombinant MAOB using kynuramine as substrate assessed as formation of 4-hydroxyquinoline after 20 mins by fluorescence spectrophotometry
pIC50: −log10 of the molar value.
measured.metric: pIC50

// below: answered compounds
item.smiles: O=C1NC(=O)c2cc(SCc3ccccc3)ccc21
pIC50: 8.35

item.smiles: O=C1NC(=O)c2cc(SCc3ccc(F)cc3)ccc21
pIC50: 8.17

A = O=C1NC(=O)c2cc(SCc3ccc(Cl)cc3)ccc21
B = O=C1NC(=O)c2cc(Sc3ccc(Br)cc3)ccc21
Form field 'greater pIC50' accepts A or B ; which applies? Returns: label corresponding to the selected item.
A

----------
Target: UniProt:P21397
Sequence (P21397 whole entry): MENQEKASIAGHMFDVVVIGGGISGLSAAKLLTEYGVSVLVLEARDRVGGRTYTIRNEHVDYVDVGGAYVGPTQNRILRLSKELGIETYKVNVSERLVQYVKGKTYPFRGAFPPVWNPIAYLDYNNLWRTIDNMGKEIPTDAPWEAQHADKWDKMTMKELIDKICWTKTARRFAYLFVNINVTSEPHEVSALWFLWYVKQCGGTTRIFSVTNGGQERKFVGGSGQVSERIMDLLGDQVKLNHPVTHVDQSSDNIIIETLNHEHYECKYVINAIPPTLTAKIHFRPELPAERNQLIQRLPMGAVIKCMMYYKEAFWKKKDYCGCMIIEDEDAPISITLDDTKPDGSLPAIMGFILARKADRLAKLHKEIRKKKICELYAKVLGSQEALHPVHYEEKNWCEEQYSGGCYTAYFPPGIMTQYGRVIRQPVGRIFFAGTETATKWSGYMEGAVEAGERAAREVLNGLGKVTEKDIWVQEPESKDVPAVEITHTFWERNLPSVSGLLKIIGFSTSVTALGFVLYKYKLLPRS
Experiment: Inhibition of human recombinant MAOA using kynuramine as substrate assessed as formation of 4-hydroxyquinoline after 20 mins by fluorescence spectrophotometry
measured.metric: IC50 (µM)

item.smiles: O=C1NC(=O)c2cc(Sc3ccc(Cl)cc3)ccc21
numeric.readout: 1.68

item.smiles: O=C1NC(=O)c2cc(Sc3ccccc3)ccc21
numeric.readout: 8.03

item.smiles: O=C1NC(=O)c2cc(SCc3ccccc3)ccc21
numeric.readout: 1.92

P = O=C1NC(=O)c2cc(SCCc3ccccc3)ccc21
Q = CC(C)CCSc1ccc2c(c1)C(=O)NC2=O
Given P and Q , report the one with the higher recorded IC50. Answer with the label corresponding to your selection.
P

P = O=C1NC(=O)c2cc(Sc3ccc(Br)cc3)ccc21
Q = COc1ccc(CSc2ccc3c(c2)C(=O)NC3=O)cc1
Two entries are listed, P and Q . Which one carries the higher IC50? Give the label under which the chosen entry appears.
Q

1 = O=C1NC(=O)c2cc(SC3CCCCC3)ccc21
2 = O=C1NC(=O)c2cc(SCc3ccc(Cl)cc3)ccc21
Which of these two has the smaller recorded IC50: 1 or 2 ? Which one? Tell me its label.
2
(2: 0.506 µM, 1: 1.03 µM)

A = O=C1NC(=O)c2cc(SCc3ccc(F)cc3)ccc21
B = O=C1NC(=O)c2cc(SCc3ccc(Br)cc3)ccc21
Hey, which is lower on measured IC50, A or B ? Answer with the label corresponding to your selection.
B

Origin of the recorded values: ChEMBL document CHEMBL2158000
